Cited source: patent US20170088605A1

Biological target: BKV serotype III chimeric infectious virus (VP1 of isolate AS) (BK virus serotype III)
Test: cell-based or functional assay

| binder | reading unit | comparison sign | neutralization EC50 |
| --- | --- | --- | --- |
| P165E2 (antibody, human IgG1, lambda, V domains shown) VH: QVQLQESGPGLVKPSETLSLTCTVSGGSISRDYWTWVRQPPGEGLEWIGNIYYSGSTNYNPSLKSRVTISVAASKKQFSLKLTSVTAADTAVYYCARVPGCSSTSCIDGWFDPWGQGILVTVSS VL: QSVLTQPPSLSAAPGQRVTISCSGSSSNIGNTYVSWYQQLPGTAPKLLIYDNNKRPSGIPGRFSGSKSGTSATLGITGLQTGDEAAYYCGTWDSSLSAWVFGGGTRLTVLG | µg/mL | > | 100 |
| P8D11B (antibody, V domains shown) VH: QVQLVESGGTLVQPGGSLRLSCAASGFTFKNYWMTWVRQAPGKGLEWVANIKKDGSEKYYVDSVRGRFTISRDNAKNSLFLQMNSLRPEDTAVYFCATVRSGRYFALDDWGQGTLVTVSS VL: QSVLTQPPSVSVAPGKTARITCGGDNIGSRPVHWYQQKPGQAPILVVYDDSNRPSGIPERFSGSNSGNTATLTISRVEAGDEADYYCQVWSSSTDHPFGGGTKVTVLG | µg/mL | = | 0.014 |
